Assay: Primary qHTS for inhibitors of nuclear receptor binding SET domain protein 2 (NSD2) in an isogenic RCH-ACV NSD2 p.E1099K mutant (9B) (AID 1645876); also: nearly all actives have a fitted effect of over 70% in size
Conditions: RCH-ACV (leukaemia line) NSD2 E1099K (9B) viability, CellTiter-Glo, 72 h; series mostly up to 44.9 µM
Records with an inconclusive call do not appear. Active and inactive are the calls of the source. Calls follow the shape of the dose curve; as a rule, active = well fitted inhibition curve with a large enough effect; inconclusive = small, poorly fitted or top-dose-only effect; inactive = flat fitted curve, though single readings scatter.
Possible outcomes: active, inactive

COMPOUND	ASSIGNED LABEL
CC1(C)CC(O)CC(C)(C)N1O	inactive
C/C1=C/C[C@@H](/C(C)=C/c2csc(C)n2)OC(=O)C[C@H](O)C(C)(C)C(=O)[C@H](C)[C@@H](O)[C@@H](C)CCC1	active
CCCCCCC(C)(C)c1cc(O)c2c(c1)OC(C)(C)C1CC=C(CO)C[C@H]21 (some centres not stated)	inactive
COC[C@H]1OC(=O)c2coc3c2[C@@]1(C)C1=C(C3=O)[C@@H]2CC[C@H](O)[C@@]2(C)C[C@H]1OC(C)=O	active
c1cc2c(cc1C1OC[C@@H]3C(c4ccc5c(c4)OCO5)OC[C@H]13)OCO2 (some centres not stated)	inactive
CC(=O)OC[C@H]1O[C@@H]([S-])[C@H](OC(C)=O)[C@@H](OC(C)=O)[C@@H]1OC(C)=O.CC[PH+](CC)CC.[Au]	active
Cn1c(/C=C/CO)c(CO)c2c1C(=O)C=C(N1CC1)C2=O	inactive
